- experimental protocol: chemical genetic growth profiling, strain panel (AID 1159580);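 further: tested at 20 µM; growth read once vehicle control cultures reached saturation at 30 °C; 1 = growth at the plate median or of vehicle wells; lower values mean less growth of the strain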
- measurement parameters: S. cerevisiae deletion strains, growth OD, locus YBR229C, strain ROT2, stronger effect = lower value
In all, about 5,500 compounds went through this assay and about 2,000 (36%) were called active. Inconclusive results (about 18%) are left out. This is one part of the list.
Listing: normalized growth of selected molecules
Note: the reply should be a number with no unit written.

molecule	measurement
CC(=O)OC1CN2CCC1CC2 (stereo not drawn)	0.973
CNC(C)C(O)c1ccccc1 (stereo not drawn)	1
CCc1cccc(CC)c1N(COC)C(=O)CCl	1.01
CNC(=O)Oc1cccc2c1OC(C)(C)O2	1.02
Clc1ccc(C=C2c3ccccc3-c3ccccc32)cc1	0.973

Now, please, on to the next molecule.
Please look up its normalized growth: CCC1OC(=O)[C@H](C)C(=O)[C@H](C)[C@@H](OC2O[C@H](C)C[C@H](N(C)C)[C@H]2O)[C@](C)(OC)C2(CCCn3cnc(-c4cccnc4)c3)C[C@@H](C)C(=O)[C@H](C)[C@H]3N(C2)C(=O)O[C@]13C (stereo partly drawn)
1
